Test system: Plasmodium falciparum
method.description: Antimalarial activity against chloroquine-resistant Plasmodium falciparum K1 assessed as parasite growth inhibition after 48 hrs by SYBR green-1 dye-based fluorescence assay
Format: functional, organism-based
measurement.setup: K1, 48 h
readout.name: IC50 (µM)
One number for each entry, in µM.

Completed entries (count: 3):
>>> numeric_readout("O=C(CC1CCC2(CC1)OOC1(OO2)C2CC3CC(C2)CC1C3)NCCCNC(=O)CC1CCC2(CC1)OOC1(OO2)C2CC3CC(C2)CC1C3 (stereo unspecified)")
0.0246
>>> numeric_readout("O=C(CC1CCC2(CC1)OOC1(OO2)C2CC3CC(C2)CC1C3)Nc1cccc(NC(=O)CC2CCC3(CC2)OOC2(OO3)C3CC4CC(C3)CC2C4)c1 (stereo unspecified)")
0.102
>>> numeric_readout("CC1(CCC(=O)NCc2cccc(CNC(=O)CCC3(C)OOC4(CCCCC4)OO3)c2)OOC2(CCCCC2)OO1 (stereo unspecified)")
0.136

Could you tell me IC50 for each of these compounds? They are listed below.
1. O=C(CC1CCC2(CC1)OOC1(OO2)C2CC3CC(C2)CC1C3)NCCNC(=O)CC1CCC2(CC1)OOC1(OO2)C2CC3CC(C2)CC1C3 (stereo unspecified)
2. O=C(CC1CCC2(CC1)OOC1(OO2)C2CC3CC(C2)CC1C3)NCCCCNC(=O)CC1CCC2(CC1)OOC1(OO2)C2CC3CC(C2)CC1C3 (stereo unspecified)
3. CC1(CCC(=O)NCCCN2CCN(CCCNC(=O)CCC3(C)OOC4(CCCCC4)OO3)CC2)OOC2(CCCCC2)OO1 (stereo unspecified)

OUT:
1. 0.0089
2. 0.0027
3. 0.612

----------
System: Plasmodium berghei
method.description: Antimalarial activity against Plasmodium berghei ANKA infected in mouse assessed as inhibition of parasitemia at 1 mg/kg, po administered for 3 days post-infection measured on day 4 by Giemsa staining relative to control
Type: functional
Please respond with reported inhibition in vivo at 1 mg/kg for every item in the list.
Give bare numbers, in %.

>>> numeric_readout("O=C(CC1CCC2(CC1)OOC1(OO2)C2CC3CC(C2)CC1C3)NCCCCNC(=O)CC1CCC2(CC1)OOC1(OO2)C2CC3CC(C2)CC1C3 (stereo not given)")
22.1

Could you tell me inhibition in vivo at 1 mg/kg for each of these compounds? They are listed below.
1. CC1(CCC(=O)NCCCN2CCN(CCCNC(=O)CCC3(C)OOC4(CCCCC4)OO3)CC2)OOC2(CCCCC2)OO1 (stereo not given)
2. C[C@H]1[C@H](OC(=O)CCC(=O)O)O[C@@H]2O[C@@]3(C)CC[C@H]4[C@H](C)CC[C@@H]1[C@@]24OO3 [ARTESUNATE]

OUT:
2.1
38.5

Could you tell me inhibition in vivo at 1 mg/kg for each of these compounds? They are listed below.
1. O=C(CC1CCC2(CC1)OOC1(CCCCC1)OO2)NCCCN1CCN(CCCNC(=O)CC2CCC3(CC2)OOC2(CCCCC2)OO3)CC1
2. O=C(CC1CCC2(CC1)OOC1(OO2)C2CC3CC(C2)CC1C3)NCCCN1CCN(CCCNC(=O)CC2CCC3(CC2)OOC2(OO3)C3CC4CC(C3)CC2C4)CC1 (stereo not given)

OUT:
1. 29.9
2. 36.1

----------
System: KB
method.description: Cytotoxicity against human KB cells assessed as cell viability after 24 hrs by MTT assay
Format: functional, cell-based
Please respond with reported IC50 for every item in the list.
Give bare numbers, in µM.

>>> numeric_readout("CC1(CCC(=O)NCCCN2CCN(CCCNC(=O)CCC3(C)OOC4(CCCCC4)OO3)CC2)OOC2(CCCCC2)OO1 (stereo not drawn)")
25
>>> numeric_readout("O=C(CC1CCC2(CC1)OOC1(OO2)C2CC3CC(C2)CC1C3)NCCNC(=O)CC1CCC2(CC1)OOC1(OO2)C2CC3CC(C2)CC1C3 (stereo not drawn)")
62.7
>>> numeric_readout("COc1cc([C@@H]2c3cc4c(cc3[C@H](O)[C@H]3COC(=O)[C@H]23)OCO4)cc(OC)c1OC")
0.0117

Could you tell me IC50 for each of these molecules? They are listed below.
1. O=C(CC1CCC2(CC1)OOC1(OO2)C2CC3CC(C2)CC1C3)Nc1cccc(NC(=O)CC2CCC3(CC2)OOC2(OO3)C3CC4CC(C3)CC2C4)c1 (stereo not drawn)
2. CC1(CCC(=O)NCc2cccc(CNC(=O)CCC3(C)OOC4(CCCCC4)OO3)c2)OOC2(CCCCC2)OO1 (stereo not drawn)
3. O=C(CC1CCC2(CC1)OOC1(OO2)C2CC3CC(C2)CC1C3)NCCCNC(=O)CC1CCC2(CC1)OOC1(OO2)C2CC3CC(C2)CC1C3 (stereo not drawn)
4. O=C(CC1CCC2(CC1)OOC1(OO2)C2CC3CC(C2)CC1C3)NCCCCNC(=O)CC1CCC2(CC1)OOC1(OO2)C2CC3CC(C2)CC1C3 (stereo not drawn)
5. CCN(CC)CCCC(C)Nc1ccnc2cc(Cl)ccc12 (stereo not drawn)

OUT:
[134, 63.1, 62.1, 5.04, 97.7]

src = ChEMBL document CHEMBL3091350
